- Test system: H2228 (human lung cancer cells)
- MEASUREMENT_NOTES: Cell proliferation assay (CellTiter-Glo), H2228
- Assay type: cell-based
- RUN_CONDITIONS: NCI-H2228, 72 hours, EML4-ALK fusion
READOUT_LABEL: IC50 (nM)
Give just the number in nM; leave the unit off.

Return reported IC50; argument: C[C@H]1Nc2ccn3ncc(c3n2)C(=O)NC[C@@]2(C)Cc3cc(F)cc1c3O2
164

----------
Provide the recorded IC50 for the entries that follow.
- MEASURED_TARGET: ALK(G1202R) (Homo sapiens, UniProt Q9UM73, G1202R)
- Construct: purchased SignalChem A19-12HG-10
- Sequence (Q9UM73 19-1620 G1202R): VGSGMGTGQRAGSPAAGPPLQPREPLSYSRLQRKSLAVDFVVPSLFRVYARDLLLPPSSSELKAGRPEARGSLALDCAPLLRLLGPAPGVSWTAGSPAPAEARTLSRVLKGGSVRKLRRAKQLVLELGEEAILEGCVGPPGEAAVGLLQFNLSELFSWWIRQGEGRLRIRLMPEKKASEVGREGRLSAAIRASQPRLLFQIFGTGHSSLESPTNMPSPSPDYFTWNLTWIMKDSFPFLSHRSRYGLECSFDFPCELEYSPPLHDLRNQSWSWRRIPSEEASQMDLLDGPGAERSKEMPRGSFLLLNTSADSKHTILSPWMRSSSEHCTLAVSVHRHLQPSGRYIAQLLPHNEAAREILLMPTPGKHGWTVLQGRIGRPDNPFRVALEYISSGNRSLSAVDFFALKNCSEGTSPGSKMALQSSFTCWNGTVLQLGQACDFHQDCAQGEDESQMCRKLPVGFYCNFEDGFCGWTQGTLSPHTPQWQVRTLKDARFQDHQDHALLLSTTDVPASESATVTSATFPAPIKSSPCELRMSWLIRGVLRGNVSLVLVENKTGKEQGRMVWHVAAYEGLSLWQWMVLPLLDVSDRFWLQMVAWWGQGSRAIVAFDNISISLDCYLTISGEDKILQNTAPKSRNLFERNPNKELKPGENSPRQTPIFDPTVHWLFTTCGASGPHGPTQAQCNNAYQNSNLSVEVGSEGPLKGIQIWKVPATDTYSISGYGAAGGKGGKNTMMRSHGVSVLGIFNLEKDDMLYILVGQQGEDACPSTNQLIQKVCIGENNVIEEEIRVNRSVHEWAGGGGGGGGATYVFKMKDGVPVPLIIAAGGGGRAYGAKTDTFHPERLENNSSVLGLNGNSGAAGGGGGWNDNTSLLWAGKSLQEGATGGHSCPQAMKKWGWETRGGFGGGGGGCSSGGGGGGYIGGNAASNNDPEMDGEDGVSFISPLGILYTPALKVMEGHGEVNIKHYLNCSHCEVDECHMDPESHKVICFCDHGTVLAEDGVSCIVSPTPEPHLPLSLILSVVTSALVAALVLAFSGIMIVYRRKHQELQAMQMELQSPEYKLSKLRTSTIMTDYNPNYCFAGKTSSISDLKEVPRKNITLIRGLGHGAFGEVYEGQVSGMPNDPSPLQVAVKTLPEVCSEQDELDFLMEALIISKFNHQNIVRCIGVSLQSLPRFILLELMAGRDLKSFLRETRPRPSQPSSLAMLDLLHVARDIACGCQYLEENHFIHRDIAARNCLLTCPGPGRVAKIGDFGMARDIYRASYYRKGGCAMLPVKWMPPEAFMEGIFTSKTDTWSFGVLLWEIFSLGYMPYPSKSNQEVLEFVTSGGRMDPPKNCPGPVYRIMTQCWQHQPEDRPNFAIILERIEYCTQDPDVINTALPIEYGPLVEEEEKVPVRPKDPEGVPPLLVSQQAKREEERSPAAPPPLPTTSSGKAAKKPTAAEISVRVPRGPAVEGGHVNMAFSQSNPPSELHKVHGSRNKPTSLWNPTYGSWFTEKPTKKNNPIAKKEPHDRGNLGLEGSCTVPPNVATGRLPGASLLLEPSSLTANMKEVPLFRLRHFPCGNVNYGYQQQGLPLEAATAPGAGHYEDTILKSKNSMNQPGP
- MEASUREMENT_NOTES: HTRF KinEASE-TK kinase activity inhibition assay, ALK(G1202R)
- Format: biochemical
- RUN_CONDITIONS: ATP 10 µM
Give a bare numeral; the unit nM is implied.

Can you look up the measured IC50 of C[C@H]1Nc2ccn3nc(N)c(c3n2)C(=O)NC[C@@]2(C)Cc3cc(F)cc1c3O2 for me?
13.6

How about C[C@H]1Nc2ccn3ncc(c3n2)C(=O)NC[C@@]2(C)Cc3cc(F)cc1c3O2 ?
13.2

----------
Consider the following compounds; for each one, report its IC50.
- MEASURED_TARGET: TRKC (Homo sapiens, UniProt Q16288)
- Construct: purchased Carna bioscience 08-197
- Sequence (Q16288 32-839): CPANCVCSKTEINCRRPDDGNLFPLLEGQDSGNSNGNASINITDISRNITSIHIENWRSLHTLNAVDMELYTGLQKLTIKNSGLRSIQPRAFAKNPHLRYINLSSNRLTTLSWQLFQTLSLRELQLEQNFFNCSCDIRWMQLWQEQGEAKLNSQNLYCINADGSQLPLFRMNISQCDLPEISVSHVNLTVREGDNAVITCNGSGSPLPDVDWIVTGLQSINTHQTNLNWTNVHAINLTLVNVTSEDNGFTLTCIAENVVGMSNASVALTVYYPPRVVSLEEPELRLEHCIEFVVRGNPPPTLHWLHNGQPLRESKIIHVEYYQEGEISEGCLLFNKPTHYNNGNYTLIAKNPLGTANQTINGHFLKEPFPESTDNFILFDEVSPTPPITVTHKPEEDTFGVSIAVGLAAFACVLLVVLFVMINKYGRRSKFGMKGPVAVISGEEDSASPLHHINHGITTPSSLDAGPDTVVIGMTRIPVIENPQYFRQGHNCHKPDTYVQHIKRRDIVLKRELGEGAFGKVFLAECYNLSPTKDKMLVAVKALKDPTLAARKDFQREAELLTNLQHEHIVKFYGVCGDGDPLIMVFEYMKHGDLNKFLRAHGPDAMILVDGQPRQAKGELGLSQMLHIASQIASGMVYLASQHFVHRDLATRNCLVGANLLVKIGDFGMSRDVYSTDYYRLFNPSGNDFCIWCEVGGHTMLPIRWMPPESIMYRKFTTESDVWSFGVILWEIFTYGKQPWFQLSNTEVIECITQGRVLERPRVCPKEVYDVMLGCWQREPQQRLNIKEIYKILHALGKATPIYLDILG
- MEASUREMENT_NOTES: HTRF KinEASE-TK kinase activity inhibition assay, TRKC
- Type: biochemical
- RUN_CONDITIONS: ATP 50 µM
Only the number, expressed in nM, is required.

Please report the recorded IC50 for C[C@H]1Nc2ccn3ncc(c3n2)C(=O)NCC2(C)Cc3cc(Cl)cc1c3O2 (some centres unmarked) [Example 22] .
0.52

Thanks! And C[C@H]1Nc2ccc3ncc(n3n2)C(=O)NC[C@@]2(C)Cc3cc(F)cc1c3O2 [Example 26] ?
0.8

Next up: C[C@H]1Nc2ccn3ncc(c3n2)C(=O)NCC2(C)Cc3cc(F)cc1c3O2 (some centres unmarked) [Example 5]
2.63

Next record, please: C[C@H]1Nc2ccn3ncc(c3n2)C(=O)NCC2(CF)Cc3cc(F)cc1c3O2 (some centres unmarked) [Example 18]
1.37

Could you do the same for COC[C@@]12CNC(=O)c3cnn4ccc(nc34)N[C@H](C)c3cc(F)cc(c3O1)C2 [Example 15] , please?
0.37

Next compound: C[C@H]1Nc2ccn3ncc(c3n2)C(=O)NCC2Cc3cc(F)cc1c3O2 (some centres unmarked) [Example 1]
0.5

Same lookup for C[C@H]1Nc2ccn3ncc(c3n2)C(=O)NCC2(CO)Cc3cc(F)cc1c3O2 (some centres unmarked) [Example 19] , please.
1.16

Moving on to the next compound: C[C@H]1Nc2ccn3ncc(c3n2)C(=O)NC[C@@]2(C)Cc3cc(F)cc1c3O2 [Example 8]
0.22

----------
- MEASURED_TARGET: TRKB (Homo sapiens, UniProt Q16620)
- Construct: purchased Carna bioscience 08-187
- Sequence (Q16620 32-822): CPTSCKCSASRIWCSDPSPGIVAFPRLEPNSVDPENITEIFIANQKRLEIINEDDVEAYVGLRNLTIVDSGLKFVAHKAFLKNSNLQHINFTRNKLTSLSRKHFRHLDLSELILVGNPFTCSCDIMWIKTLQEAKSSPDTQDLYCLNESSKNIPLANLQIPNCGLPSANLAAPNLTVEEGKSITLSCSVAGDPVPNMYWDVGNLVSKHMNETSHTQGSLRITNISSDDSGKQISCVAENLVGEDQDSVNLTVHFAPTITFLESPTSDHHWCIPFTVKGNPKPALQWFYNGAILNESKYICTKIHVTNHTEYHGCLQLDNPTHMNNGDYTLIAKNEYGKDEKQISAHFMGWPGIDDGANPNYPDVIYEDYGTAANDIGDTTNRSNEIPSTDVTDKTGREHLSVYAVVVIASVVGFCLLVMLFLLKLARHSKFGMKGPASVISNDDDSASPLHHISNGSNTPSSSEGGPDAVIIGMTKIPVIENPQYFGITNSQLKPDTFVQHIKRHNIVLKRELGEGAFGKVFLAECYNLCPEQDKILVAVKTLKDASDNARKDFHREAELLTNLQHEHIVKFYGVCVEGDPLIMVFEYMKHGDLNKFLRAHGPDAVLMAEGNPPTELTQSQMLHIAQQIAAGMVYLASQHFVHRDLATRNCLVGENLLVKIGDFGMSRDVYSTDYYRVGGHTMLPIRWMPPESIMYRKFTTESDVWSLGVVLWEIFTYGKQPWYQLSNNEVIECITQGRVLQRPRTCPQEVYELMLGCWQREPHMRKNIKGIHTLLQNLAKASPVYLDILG
- MEASUREMENT_NOTES: HTRF KinEASE-TK kinase activity inhibition assay, TRKB
- Assay type: biochemical
- RUN_CONDITIONS: ATP 10 µM
Threshold 0.3 nM: IC50 strictly smaller gives MET, otherwise NOT MET.

Regarding C[C@H]1Nc2ccn3ncc(c3n2)C(=O)NCC2(CF)Cc3cc(F)cc1c3O2 (some centres unmarked) , kindly confirm whether its IC50 is beneath 0.3 nM.
MET

Next: C[C@H]1Nc2ccn3ncc(c3n2)C(=O)NCC2(C)Cc3cc(Cl)cc1c3O2 (some centres unmarked)
NOT MET

Also C[C@H]1Nc2ccn3ncc(c3n2)C(=O)NCC[C@H]2Cc3cc(F)cc1c3O2 , if possible.
NOT MET

Moving on to C[C@H]1Nc2ccn3ncc(c3n2)C(=O)NC[C@@H]2COc3cc(F)cc1c3O2
NOT MET

Same question, C[C@H]1Nc2ccn3ncc(c3n2)C(=O)NCCC2=Cc3cc(F)cc1c3O2 this time
NOT MET

Also C[C@H]1Nc2ccn3ncc(c3n2)C(=O)NCC2(C)Cc3cc(F)cc1c3O2 (some centres unmarked) , if possible.
NOT MET

Now the same for C[C@H]1Nc2ccn3nc(N)c(c3n2)C(=O)NC[C@@]2(C)Cc3cc(F)cc1c3O2
NOT MET

One more compound: C[C@H]1Nc2ccc3ncc(n3n2)C(=O)NC[C@@]2(C)Cc3cc(F)cc1c3O2
NOT MET

Field entry: C[C@H]1Nc2ccn3ncc(c3n2)C(=O)NC[C@@]2(C)Cc3cc(F)cc1c3O2
NOT MET

Same again, this time with C[C@H]1Nc2ccn3ncc(c3n2)C(=O)NCC2Cc3cc(F)cc1c3O2 (some centres unmarked)
MET

// query: C[C@H]1Nc2ccn3ncc(c3n2)C(=O)NCC2(CO)Cc3cc(F)cc1c3O2 (some centres unmarked)
MET
